Hello, the source for this data is ChEMBL document CHEMBL3774368, in case you need it.

# ASSAY PROTOCOL: Clearance in portal vein cannulated Sprague-Dawley rat blood
# CONDITIONS USED: whole blood
PROPERTY: clearance (mL/min/kg)

# count of solved cases: 2
In [3]: df
Out[3]:
                                   molecule   property  recorded_value
0  Cn1c(SCCCN2CC3CCN(c4ccccc4)C3C2)nnc1C1CCOCC1 (stereo in doubt; 62a)  clearance              20
1  Cn1c(SCCCN2CC3CCN(c4ccc(C(F)(F)F)cc4)C3C2)nnc1-c1cc[nH]c(=O)c1 (stereo in doubt; 55b)  clearance              37

[a] Cc1ncoc1-c1nnc(SCCCN2CC3CCN(c4ccc(F)cc4)C3C2)n1C (stereo in doubt; 9a)
[b] Cc1ncoc1-c1nnc(SCCCN2CC3CCN(c4ccc(C(F)(F)F)cc4F)C3C2)n1C (stereo in doubt; 8b)
Exercise: Pick the one with the larger clearance: a vs b Refer to your chosen item by its label in the answer.
Key: a

---

# ASSAY PROTOCOL: in vitro
# CONDITIONS USED: human, Caco-2
PROPERTY: efflux ratio
Would you mind answering with just the numeric figure?

Lab note: measured efflux ratio of Cn1c(SCCCN2CC3CCN(c4ccc(C(F)(F)F)cc4)C3C2)nnc1-c1cc[nH]c(=O)c1 (stereo in doubt; 55b) was 3.8

---

# ASSAY PROTOCOL: in vitro
# CONDITIONS USED: rat, liver microsomes, CLH
PROPERTY: microsomal CLint at 0.5 µM (µL/min/mg)

Below: 4 molecules and their reported microsomal CLint at 0.5 µM.
>>> print(df.to_string())
                                   molecule  recorded_value
0  Cn1c(SCCCN2CC3CCN(c4ccc(C(F)(F)F)cc4)C3C2)nnc1-c1cc[nH]c(=O)c1 (stereo in doubt; 55b)              47
1  Cc1ncoc1-c1nnc(SCCCN2CC3CCN(c4ccc(F)cc4)C3C2)n1C (stereo in doubt; 9a)             136
2  Cc1ncoc1-c1nnc(SCCCN2CC3CCN(c4ccc(C(F)(F)F)cc4F)C3C2)n1C (stereo in doubt; 8b)              43
3  Cc1ncoc1-c1nnc(SCCCN2CC3CCN(c4ccccc4)C3C2)n1C (stereo in doubt; 6b)             364

[a] Cn1c(SCCCN2CC3CCN(c4ccc(C(F)(F)F)cc4)C3C2)nnc1-c1ccc(=O)n(C)c1 (stereo in doubt; 57a)
[b] Cn1c(SCCCN2CC3CCN(c4ccccc4)C3C2)nnc1C1CCOCC1 (stereo in doubt; 62a)
Exercise: Would you kindly point out which of a and b has the smaller microsomal CLint at 0.5 µM figure? To answer, give the label that identifies your chosen option.
Key: a

---

# MEASURED ON: Cytochrome P450 2D6 (Homo sapiens, UniProt P10635)
# Sequence (P10635 whole entry): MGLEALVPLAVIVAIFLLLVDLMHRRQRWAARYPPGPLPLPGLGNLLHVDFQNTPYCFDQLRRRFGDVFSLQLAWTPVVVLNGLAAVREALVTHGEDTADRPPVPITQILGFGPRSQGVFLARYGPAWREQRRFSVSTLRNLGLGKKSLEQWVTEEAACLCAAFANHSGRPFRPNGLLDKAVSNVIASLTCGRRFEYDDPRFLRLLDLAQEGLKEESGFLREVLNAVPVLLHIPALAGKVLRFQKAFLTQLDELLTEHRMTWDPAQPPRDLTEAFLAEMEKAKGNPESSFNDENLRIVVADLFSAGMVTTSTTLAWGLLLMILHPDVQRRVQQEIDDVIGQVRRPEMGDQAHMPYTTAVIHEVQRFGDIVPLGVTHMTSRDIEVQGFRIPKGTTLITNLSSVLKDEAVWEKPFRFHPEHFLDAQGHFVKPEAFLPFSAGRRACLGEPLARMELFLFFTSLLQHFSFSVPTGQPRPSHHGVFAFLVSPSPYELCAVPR
# ASSAY PROTOCOL: Inhibition of recombinant human CYP2D6 expressed in baculosomes preincubated for 10 mins followed by cofactor addition measured every minute for 10 mins using 4-methylaminomethyl-7-methoxycoumarin as substrate by CYPEX assay
PROPERTY: IC50

                                   compound  recorded_value
0  Cn1c(SCCCN2CC3CCN(c4ccccc4)C3C2)nnc1C1CCOCC1 (stereo in doubt; 62a)         > 17 µM
1  Cn1c(SCCCN2CC3CCN(c4ccc(C(F)(F)F)cc4)C3C2)nnc1-c1cc[nH]c(=O)c1 (stereo in doubt; 55b)         > 20 µM
2  Cc1ncoc1-c1nnc(SCCCN2CC3CCN(c4ccc(C(F)(F)F)cc4F)C3C2)n1C (stereo in doubt; 8b)          > 3 µM
3  Cn1c(SCCCN2CC3CCN(c4ccc(C(F)(F)F)cc4)C3C2)nnc1-c1cnccn1 (stereo in doubt; 17b)          > 2 µM
4  Cn1c(SCCCN2CC3CCN(c4ccc(F)cc4F)C3C2)nnc1-c1cnccn1 (stereo in doubt; 36b)          > 1 µM

IC50 for Cc1ncoc1-c1nnc(SCCCN2CC3CCN(c4ccc(F)cc4)C3C2)n1C (stereo in doubt; 9a) is > 5 µM

Measured IC50 of CC(C)Oc1ccccc1N1CCC2CN(CCCSc3nnc(-c4cnccn4)n3C)CC21 (stereo in doubt; 35b) : > 1 µM

Lab note: measured IC50 of Cc1ncoc1-c1nnc(SCCCN2CC3CCN(c4ccccc4)C3C2)n1C (stereo in doubt; 6b) was > 1 µM

Looking up Cn1c(SCCCN2CC3CCN(c4ccccc4C(F)(F)F)C3C2)nnc1-c1cccnc1 (stereo in doubt; 52a) , I see its IC50 listed as > 3 µM

---

# ASSAY PROTOCOL: in vivo
# CONDITIONS USED: Sprague-Dawley, rat
PROPERTY: hepatic extraction ratio

[a] Cc1ncoc1-c1nnc(SCCCN2CC3CCN(c4ccc(C(F)(F)F)cc4F)C3C2)n1C (stereo in doubt; 8b)
[b] Cn1c(SCCCN2CC3CCN(c4ccc(C(F)(F)F)cc4)C3C2)nnc1-c1cc[nH]c(=O)c1 (stereo in doubt; 55b)
Exercise: Quick check, higher hepatic extraction ratio between a and b ? Give the chosen item's label as your response.
Key: b
(b: 0.4, a: 0.07)

---

# MEASURED ON: UniProtKB P35462
# Sequence (P35462 whole entry): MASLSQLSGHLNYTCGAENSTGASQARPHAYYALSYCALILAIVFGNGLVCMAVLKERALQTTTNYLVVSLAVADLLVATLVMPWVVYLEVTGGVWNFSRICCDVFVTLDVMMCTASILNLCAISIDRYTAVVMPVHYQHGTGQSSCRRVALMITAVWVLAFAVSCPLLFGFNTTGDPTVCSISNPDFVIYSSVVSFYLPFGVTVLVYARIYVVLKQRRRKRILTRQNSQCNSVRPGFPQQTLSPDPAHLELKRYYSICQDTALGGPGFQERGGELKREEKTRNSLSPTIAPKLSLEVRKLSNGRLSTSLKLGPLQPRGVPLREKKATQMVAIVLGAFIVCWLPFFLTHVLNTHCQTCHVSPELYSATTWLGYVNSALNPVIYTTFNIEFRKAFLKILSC
# ASSAY PROTOCOL: Displacement of [3H]-spiperone from human dopamine D3 receptor expressed in CHO-K1 cell membranes after 90 mins by liquid scintillation counter method
PROPERTY: Ki (nM)

# example entries with known answers
In [3]: df
Out[3]:
                                   molecule  recorded_value
0  Cn1c(SCCCN2CC3CCN(c4ccc(C(F)(F)F)cc4)C3C2)nnc1-c1cncnc1 (racemic)            50.1
1  Cn1c(SCCCN2CC3CCN(c4ccccc4)C3C2)nnc1C1CCOCC1 (stereo in doubt; 62a)            6.31
2  Cn1c(SCCCN2CC3CCN(c4ccc(C(F)(F)F)cc4)C3C2)nnc1-c1ccncc1 (racemic)               2
3  Cn1c(SCCCN2CC3CCN(c4ccc(F)cc4)C3C2)nnc1C1CCCCC1 (racemic)            12.6
4  Cn1c(SCCCN2CC3CCN(c4ccc(C(F)(F)F)cc4)C3C2)nnc1-c1cc[nH]c(=O)c1 (stereo in doubt; 55b)            7.94

[1] Cn1c(SCCCN2CC3CCN(c4ccc(F)cc4C(F)(F)F)C3C2)nnc1-c1cnccn1 (racemic)
[2] Cc1ncoc1-c1nnc(SCCCN2CC3CCN(c4cccc(C#N)c4)C3C2)n1C (stereo in doubt; 12a)
[3] Cn1c(SCCCN2CC3CCN(c4cccc(F)c4)C3C2)nnc1-c1cnccn1 (racemic)
Exercise: Please list these in order of increasing Ki. Thank you! Returns: the labels listed in the requested order.
Key: 2, 3, 1
(2: 0.631 nM, 3: 5.01 nM, 1: 25.1 nM)

[A] Cn1c(SCCCN2CC3CCN(c4ccc(F)cc4F)C3C2)nnc1-c1cnccn1 (racemic)
[B] Cn1c(SCCCN2CC3CCN(c4ccc(C(F)(F)F)cc4)C3C2)nnc1C1CCCC1 (stereo in doubt; 64a)
Exercise: Which entry has a larger number for Ki, A or B ? Identify your pick by its label.
Key: A

[A] Cn1c(SCCCN2CC3CCN(c4c(F)cccc4C(F)(F)F)C3C2)nnc1-c1cnccn1 (racemic)
[B] Cc1ncoc1-c1nnc(SCCCN2CC3CCN(c4ccccc4OC(F)(F)F)C3C2)n1C (racemic)
[C] Cn1c(SCCCN2CC3CCN(c4ccc(C#N)cc4)C3C2)nnc1-c1cnccn1 (racemic)
[D] Cn1c(SCCCN2CC3CCN(c4ccc(OC(F)(F)F)cc4)C3C2)nnc1-c1cnccn1 (racemic)
Exercise: Hello, I need these entries ordered by Ki, highest reading first. Thanks! // respond by listing labels in the order requested
Key: C, D, A, B

[P] Cc1ncoc1-c1nnc(SCCCN2CC3CCN(c4cccc(F)c4)C3C2)n1C (racemic)
[Q] Cc1ccccc1N1CCC2CN(CCCSc3nnc(-c4cnccn4)n3C)CC21 (racemic)
Exercise: So which one has the bigger Ki here, P or Q ? Lab note: record the label of whichever item you select.
Key: Q

[A] Cn1c(SCCCN2CC3CCN(c4ccccc4)C3C2)nnc1C1CCOCC1 (racemic)
[B] Cn1c(SCCCN2CC3CCN(c4ccc(C(F)(F)F)cc4)C3C2)nnc1N1CCOCC1 (stereo in doubt; 61b)
Exercise: Thinking about recorded Ki values, which is higher, A or B ? Could you answer with the label of the item you picked?
Key: A

[A] Cn1c(SCCCN2CC3CCN(c4ccccc4C#N)C3C2)nnc1-c1cnccn1 (racemic)
[B] Cc1cccc(N2CCC3CN(CCCSc4nnc(-c5cnccn5)n4C)CC32)c1 (racemic)
Exercise: From the recorded data, which exceeds the other in Ki: A or B ? Answer format: the label of the selected item.
Key: A
(A: 6.31 nM, B: 3.98 nM)

[a] Cc1ccc(N2CCC3CN(CCCSc4nnc(-c5cnccn5)n4C)CC32)cc1 (racemic)
[b] COc1ccccc1N1CCC2CN(CCCSc3nnc(-c4cnccn4)n3C)CC21 (racemic)
[c] Cn1c(SCCCN2CC3CCN(c4cccc(C(F)(F)F)c4)C3C2)nnc1-c1cnccn1 (racemic)
Exercise: Please give the order of these molecules when sorted by Ki, largest value leading. Put the labels in the requested order and write them down.
Key: b, a, c

[1] Cn1c(SCCCN2CC3CCN(c4ccc(C(F)(F)F)cc4)C3C2)nnc1-c1cc[nH]c(=O)c1 (racemic)
[2] Cn1c(SCCCN2CC3CCN(c4ccc(C(F)(F)F)cc4)C3C2)nnc1-c1ccc(=O)n(C)c1 (stereo in doubt; 57b)
Exercise: Looking at recorded values for Ki, does 1 or 2 come in lower? Indicate which entry you chose by stating its label.
Key: 2
